// provenance: patent US8067442B2

assay system: HCV polymerase (NS5B570n-Con1) (Hepatitis C virus genotype 1b)
Construct: a 21 amino acid C-terminal deletion of full-length HCV polymerase
protocol summary: biochemical
Recorded log10 IC50, one value per entry.
measurement type: log10 IC50 (log10 of the value in nM)

| compound | log10 IC50 |
| --- | --- |
| CC(C)(C)c1cc(-c2ccc[nH]c2=O)cc2c(-c3cccc(NS(C)(=O)=O)c3)coc12 [Compound I-82] | 2.05 |
| CC(C)(C)c1cc(-c2ccc[nH]c2=O)cc2c(C(=O)NC3(CO)CCCC3)coc12 [Compound I-18] | 3.68 |
| CC(C)(C)c1cc(-c2ccc[nH]c2=O)cc2c(C(=O)N3CCC[C@H](N)C3)coc12 [Compound I-41] | 2.10 |
| CC(C)(C)c1cc(-c2cc(F)c[nH]c2=O)cc2c(C(=O)N3CC[C@H](CNS(C)(=O)=O)C3)coc12 [Compound I-92] | 1.46 |
| CC(C)(C)c1cc(-c2cc(F)c[nH]c2=O)cc2c(-c3ccc(CNS(C)(=O)=O)cc3)coc12 [Compound I-74] | 1.57 |
| CC(C)(C)c1cc(-c2ccc[nH]c2=O)cc2c(C(=O)N3CCCC3)coc12 [Compound I-51] | 1.08 |
| CC(C)(C)OC(=O)NCC1CCN(C(=O)c2coc3c(C(C)(C)C)cc(-c4ccc[nH]c4=O)cc23)C1 (stereo not shown) [Compound I-45] | 1.88 |
| CC(C)(C)c1cc(-c2ncc[nH]c2=O)cc2c(C(=O)N3CCCC(CNS(C)(=O)=O)C3)coc12 (stereo not shown) [Compound 102] | 0.90 |
| CC(C)(C)c1cc(-c2ccc[nH]c2=O)cc2c(-c3ccc(NS(C)(=O)=O)cc3)coc12 [Compound I-79] | 1.43 |
| CC(C)(C)c1cc(-c2ccc[nH]c2=O)cc2c(-c3ccc(CNS(C)(=O)=O)cc3)coc12 [Compound I-37] | 0.60 |
